Recorded values, source PubChem BioAssay (NCI).

test system: A498 renal; assay: NCI-60 one-dose screen, 48 h; details: 10 µM unless noted
The panel holds about 83,000 compounds, 20% with a hit somewhere; the sample as a whole holds those more often. Calls of active or inactive are those of the source. The calls were made as follows: active = growth percent below 10; inactive = the rest.
Answer with one of the outcomes active, inactive

**Query** // param item: `COc1ccc(C(=O)/C=C/c2ccc3ccccc3c2)cc1S(N)(=O)=O` ; yields the recorded call
**Result** inactive

**Query** Next compound up: CCOP(=O)(OCCCl)c1nc(-c2ccc(C)cc2)oc1NCc1ccccc1 (stereo not given)
**Result** inactive

**Query** Next compound up: C#CCOc1cc(N(CC)CC)ccc1C(C(=O)NC(C)(C)C)N(C(=O)C1CCc2cc(F)ccc2O1)c1ccccc1F (stereo not given)
**Result** inactive

**Query** Next compound up: COc1c(F)ccc(C(=O)Nc2ccc3nc(NC(=O)C4CCCN(S(=O)(=O)C5CC5)C4)sc3c2)c1F (stereo not given)
**Result** inactive

**Query** Next compound up: `N/C(=N\c1nc2ccccc2s1)NC(=O)Nc1ccccc1Br`
**Result** inactive

**Query** Next compound up: CC(=O)/C=C/c1cccc2c1C(=O)NC(C)(c1cc3cc(Br)ccc3oc1=O)N2 (stereo not given)
**Result** inactive

**Query** Next compound up: `CC(C)Sc1nc(NCCc2c[nH]c3ccccc23)c(C#N)c(-c2ccc(F)cc2)n1`
**Result** inactive

**Query** Next compound up: `CCCCc1c(Nn2cnnn2)no[n+]1[O-]`
**Result** inactive

**Query** Next compound up: `CCC(C)(C)c1ccc(OCCCCCCN2CCN(c3ccncc3)CC2)cc1`
**Result** inactive

**Query** Next compound up: CC12CC[C@@H]3[C@]4(C)COC(c5cn[nH]c5-c5cccc(Br)c5)O[C@@H]4CC[C@@]3(C)[C@@H]1CC(C1=CCOC1=O)O2 (stereo not given in full)
**Result** inactive

**Query** Next compound up: `COc1cc(/C=C/C(=O)c2ccccc2)ccc1Oc1nc(Nc2ccc(F)cc2)nc(N(C)C)n1`
**Result** inactive

**Query** Next compound up: Cc1ccc(NC(=O)[C@]23CCC(C)(C)CC2C2=CCC4[C@@]5(C)C[C@@H](O)[C@H](O)[C@@](C)(CO)C5CC[C@@]4(C)[C@]2(C)CC3)cc1 (stereo not given in full)
**Result** active

**Query** Next compound up: `OCNc1ccc(-n2cnc3cc(-c4ccc(O)cc4)ccc32)cc1C(F)(F)F`
**Result** inactive

**Query** Next compound up: `Cc1ccc(C(=O)NN2C(=O)/C(=C/C=C/c3ccc([N+](=O)[O-])o3)SC2=S)cc1`
**Result** active

**Query** Next compound up: COc1c(F)ccc(C(=O)Nc2ccc3nc(NC(=O)C4CCCN(S(=O)(=O)c5ccc(C(F)(F)F)cc5)C4)sc3c2)c1F (stereo not given)
**Result** inactive

**Query** Next compound up: `S=C(Nc1ccccc1)Nc1ccc(OCc2nc3ccccc3[nH]2)cc1`
**Result** inactive

**Query** Next compound up: `N#Cc1c(-c2ccccc2Cl)cc(-c2c[nH]c3ccccc23)[nH]c1=O`
**Result** inactive

**Query** Next compound up: `O=c1[nH]c2ccccc2cc1CSc1cccc(Nc2nccc(-c3ccc4ccccc4c3)n2)c1`
**Result** inactive

**Query** Next compound up: `COc1cc2oc(-c3cccc(NC(=O)[C@H](CC(N)=O)NC(=O)OC(C)(C)C)c3)cc(=O)c2c(OC)c1OC`
**Result** inactive

**Query** Next compound up: `Cn1cc(NC(=O)c2cc(NC(=O)c3ccc(C#Cc4ccccc4)cc3)cn2C)cc1C(=O)NCCCN1CCOCC1`
**Result** inactive

---

tested on: LOX IMVI melanoma; assay: NCI-60 one-dose screen, 48 h (100 = growth as untreated, 0 = no growth, -100 = all killed); conditions: 10 µM
The panel holds about 83,000 compounds, 20% with a hit somewhere; the sample as a whole holds those more often. Activity calls are given as the source filed them. How the source made its calls: active means growth percent below 10; inactive means the rest.
measured-property: growth

**Query** GET /values?readout=growth&system=LOX IMVI melanoma&item= `COc1ccc(/C=N/NC(=O)Cn2nc(Cc3ccc(OC)cc3)c3onc(C)c3c2=O)cc1`
**Result** 10.6% (inactive)

**Query** Next compound up: COc1ccc2oc(=O)c(C3(C)NC(=O)c4c(/C=C/C(=O)OC(C)(C)C)cccc4N3)cc2c1 (stereo not given)
**Result** 49.1% (inactive)

**Query** Next compound up: C#CCOc1cc(N(CC)CC)ccc1C(C(=O)NC(C)(C)C)N(C(=O)C1CCc2cc(F)ccc2O1)c1ccc(F)cc1 (stereo not given)
**Result** 42.3% (inactive)

**Query** Next compound up: `O=c1[nH]c2ccccc2cc1CSc1cccc(Nc2nccc(-c3ccc4ccccc4c3)n2)c1`
**Result** 87.4% (inactive)

**Query** Next compound up: `Cn1cc(-c2nc(N)nnc2-c2c[nH]c3ccc(F)cc23)c2cc(Br)cnc21`
**Result** 13.9% (inactive)

---

system: SR leukemia; assay: NCI-60 one-dose screen, 48 h (100 = growth as untreated, 0 = no growth, -100 = all killed); conditions: 10 µM unless noted
About 83,000 compounds went through this panel and 20% of them were active in at least one assay; those are over-represented in the sample as a whole.
measured-property: growth (%)
Only the number, expressed in %, is required.

**Query** Entry `COc1cc(-c2ccc(/C=N/NC(=O)c3[nH]c4ccc(Br)cc4c3-c3ccccc3)s2)cc(OC)c1OC` has what growth?
**Result** 79

**Query** Next compound up: CCN1C(=O)N(CC)C2NNC(Sc3c(C(=O)O)c4ccccc4n(C4CCCC4)c3=O)=NC21 (configuration not stated)
**Result** 22.4

**Query** Next compound up: `COc1ccc(-c2ccc(SCC(=O)Nc3ccc(S(N)(=O)=O)cc3Br)nn2)cc1`
**Result** 92.7

**Query** Next compound up: `O=C(CCN1C(=O)/C(=C/c2ccc(F)cc2)SC1=S)N1CCOCC1`
**Result** 35

**Query** Next compound up: CC1=C(C(=O)c2ccccc2)C(c2ccc(-n3cncn3)cc2)n2c(nc3ccccc32)N1 (configuration not stated)
**Result** 76.9

**Query** Next compound up: `Cn1cc(-c2cc3nc(-c4cn(C)c5ncc(Br)cc45)cc(N)n3n2)c2ccccc21`
**Result** -20.7

**Query** Next compound up: `Cc1c(C(=O)NNC(=O)c2ccc(Cl)cc2)nnn1-c1ccc(Br)cc1`
**Result** 84.3

---

test system: BT-549 breast; test: NCI-60 one-dose screen, 48 h (100 = growth as untreated, 0 = no growth, -100 = all killed); conditions: 10 µM unless noted
About 83,000 compounds went through this panel and 20% of them were active in at least one assay; those are over-represented in the sample as a whole. The source made the active and inactive calls. How the source made its calls: active means growth percent below 10; inactive means the rest.
Could you please report measured growth for the items listed next?

**Query** Entry `C(=C\c1cc(/C=C/c2ccccc2)c2ccccc2n1)/c1ccccc1` has what growth?
**Result** 126% (inactive)

**Query** Next compound up: CCOC(=O)C1=C(N)N(c2ccccc2)C2=C(C(=O)CC(C)(C)C2)C1c1ccccc1Cl (configuration not stated)
**Result** 78.6% (inactive)

**Query** Next compound up: `CC(=O)Nc1ccc(-n2cnc3ccc(-c4ccc(O)cc4)cc32)cc1`
**Result** 51.4% (inactive)

**Query** Next compound up: CN(C)CCOc1ccc(C(=O)C2[C@H](c3ccc(Cl)cc3)[C@@H](c3ccccc3)NC23C(=O)Nc2ccc(Br)cc23)cc1 (some centres not stated)
**Result** 67% (inactive)

**Query** Next compound up: Cc1sc2c(c1C)C(c1ccc(Cl)cc1)=N[C@@H](CC(=O)NCCCCCNC(=O)COc1ccc(C3CCC(=O)NC3=O)cc1)c1nnc(C)n1-2 (some centres not stated)
**Result** -0.134% (active)

**Query** Next compound up: `CN(C)c1nc(NCCNS(=O)(=O)c2ccc(C(=O)/C=C/c3ccc(F)cc3)cc2)nc(Nc2ccc(F)cc2)n1`
**Result** -88.7% (active)

**Query** Next compound up: C=C1CCC2C3(C)COC(c4ccccc4)OC3CCC2(C)C1CC(NCc1ccccc1)C1=CCOC1=O (configuration not stated)
**Result** 73.4% (inactive)

**Query** Next compound up: `NS(=O)(=O)c1ccc(N=Nc2c(O)n(CC(=O)Nc3ccccc3Cl)c3ccccc23)cc1`
**Result** -4.12% (active)

**Query** Next compound up: O=C1CC(Sc2n[nH]c(-c3ccncc3)n2)C(=O)N1c1ccc(Br)cc1 (configuration not stated)
**Result** 122% (inactive)

**Query** Next compound up: `CCCCn1c(O)c(N=Nc2nc(-c3cc4ccccc4oc3=O)cs2)c2cc(Br)ccc21`
**Result** 132% (inactive)

**Query** Next compound up: `COc1cccc(COc2ccc(NC(=O)Nc3ccc(Cl)c(C(F)(F)F)c3)cc2)c1`
**Result** 37.9% (inactive)

**Query** Next compound up: `CC(=O)Oc1ccccc1C(=O)[Se]C(=NC1CCCCC1)NC1CCCCC1`
**Result** -91.7% (active)

**Query** Next compound up: `COc1cc(OC)c2c3nc4cc(C)c(C)cc4nc3n(CCN(C)C)c2c1`
**Result** 78.9% (inactive)

**Query** Next compound up: `O=c1onc(-c2cc3ccccc3nc2Cl)n1-c1cccc2ccccc12`
**Result** 28.5% (inactive)

**Query** Next compound up: `COc1ccc(-c2ccc(SCC(=O)Nc3ccc(S(N)(=O)=O)cc3Br)nn2)cc1`
**Result** 49.3% (inactive)

**Query** Next compound up: `COc1cccc(-c2c(C#N)c(-c3ccc(Cl)cc3)nc3n[nH]c(-c4ccc(Cl)cc4)c23)c1`
**Result** 44% (inactive)

**Query** Next compound up: `COc1ccc([C@H](C)Nc2nc(Cl)nc3ccccc23)cc1`
**Result** 60.3% (inactive)
